// values below are reported abundance fitness
B1: Transcription intermediary factor 1-beta, residues 620 to 671; numbered along this chain, Q13263 (parent)
chain: TLDDSATICRVCQKPGDLVMCNQCEFCFHLDCHLPALQDVPGEEWSCSLCHV

# Variants of: B1
# assay-protocol: abundance fitness (aPCA) (normalised: wild type 0, dead -1); higher = more abundant; growth selection in yeast, the domain comes from the species named
# applied-conditions: Homo sapiens

Past entries and their recorded results:
| mutant-code | abundance fitness |
| --- | --- |
| L34H | 0.157 |
| L37W | 0.118 |
| Q13I | -0.265 |

Short answer for D17T : abundance fitness was -0.074

Short answer for C50E : abundance fitness was -0.232

Short answer for F28C : abundance fitness was -0.211

Short answer for V40Q : abundance fitness was -0.383
